Where do these numbers come from? They come from the supplement of paper PMC6757056.

B1: library; a variant is named by its letters at N, in order (parent)
chain: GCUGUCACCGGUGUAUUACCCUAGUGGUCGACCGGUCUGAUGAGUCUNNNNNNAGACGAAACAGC

- Variants of: B1
- protocol_summary: normalized RNA/DNA level without ligand (relative to sTRSVctl = 100) (log10 (% of sTRSVctl)); ligand: hypoxanthine (xanthine aptamer); higher = less ribozyme self-cleavage, higher mRNA level
- cond: HEK293T, reporter: mCherry (pCS4076), ligand present: no
measured_parameter: normalized RNA/DNA level without ligand (log10)
Give your answer as a number; write no unit.

Some entries whose results are on file:
{"columns": ["biosequence", "quantitative_result"],
 "data": [
  ["GCUGUCACCGGUGUAUUACCCUAGUGGUCGACCGGUCUGAUGAGUCUCAGCAGAGACGAAACAGC [CAGCAG]", 1.68],
  ["GCUGUCACCGGUGUAUUACCCUAGUGGUCGACCGGUCUGAUGAGUCUGAACGUAGACGAAACAGC [GAACGU]", 1.69],
  ["GCUGUCACCGGUGUAUUACCCUAGUGGUCGACCGGUCUGAUGAGUCUCCCAGCAGACGAAACAGC [CCCAGC]", 1.88],
  ["GCUGUCACCGGUGUAUUACCCUAGUGGUCGACCGGUCUGAUGAGUCUUUCACUAGACGAAACAGC [UUCACU]", 1.76],
  ["GCUGUCACCGGUGUAUUACCCUAGUGGUCGACCGGUCUGAUGAGUCUGCCUUUAGACGAAACAGC [GCCUUU]", 1.92]
]}

Consider the variant shown here: GCUGUCACCGGUGUAUUACCCUAGUGGUCGACCGGUCUGAUGAGUCUUCCCCAAGACGAAACAGC [UCCCCA] What is its recorded normalized RNA/DNA level without ligand (log10)?
1.82

Consider the variant shown here: GCUGUCACCGGUGUAUUACCCUAGUGGUCGACCGGUCUGAUGAGUCUUGAACAAGACGAAACAGC [UGAACA] What is its recorded normalized RNA/DNA level without ligand (log10)?
1.86

Consider the variant shown here: GCUGUCACCGGUGUAUUACCCUAGUGGUCGACCGGUCUGAUGAGUCUCGAACCAGACGAAACAGC [CGAACC] What is its recorded normalized RNA/DNA level without ligand (log10)?
1.89

Consider the variant shown here: GCUGUCACCGGUGUAUUACCCUAGUGGUCGACCGGUCUGAUGAGUCUCGAACAAGACGAAACAGC [CGAACA] What is its recorded normalized RNA/DNA level without ligand (log10)?
1.76

Consider the variant shown here: GCUGUCACCGGUGUAUUACCCUAGUGGUCGACCGGUCUGAUGAGUCUACUUGUAGACGAAACAGC [ACUUGU] What is its recorded normalized RNA/DNA level without ligand (log10)?
1.77

Consider the variant shown here: GCUGUCACCGGUGUAUUACCCUAGUGGUCGACCGGUCUGAUGAGUCUUUUUGAAGACGAAACAGC [UUUUGA] What is its recorded normalized RNA/DNA level without ligand (log10)?
1.63
